Conditions: in isopropanol, 318.15 K
VALUE TYPE: solubility (mole fraction)

Enquiry: Please report the recorded solubility (mole fraction) for CCCOC(=O)c1cc(O)c(O)c(O)c1 .
Return: 0.359

====

Details: in isopropanol, 328.15 K
VALUE TYPE: solubility (mole fraction)
Lab note: record the figure alone, no unit after it.

Enquiry: Please report the recorded solubility (mole fraction) for CCCOC(=O)c1cc(O)c(O)c(O)c1 .
Return: 0.396

====

Settings: in methyl acetate, 313.15 K
VALUE TYPE: solubility (mole fraction)
Lab note: record the figure alone, no unit after it.

Enquiry: Please report the recorded solubility (mole fraction) for CCCOC(=O)c1cc(O)c(O)c(O)c1 .
Return: 0.329

====

Details: in isopropanol, 293.15 K
VALUE TYPE: solubility (mole fraction)
Lab note: record the figure alone, no unit after it.

Enquiry: Please report the recorded solubility (mole fraction) for CCCOC(=O)c1cc(O)c(O)c(O)c1 .
Return: 0.253

====

Details: in ethanol, 323.15 K
VALUE TYPE: solubility (mole fraction)
Lab note: record the figure alone, no unit after it.

Enquiry: Please report the recorded solubility (mole fraction) for CCCOC(=O)c1cc(O)c(O)c(O)c1 .
Return: 0.311

====

Conditions: in n-propanol, 328.15 K
VALUE TYPE: solubility (mole fraction)
Lab note: record the figure alone, no unit after it.

Enquiry: Please report the recorded solubility (mole fraction) for CCCOC(=O)c1cc(O)c(O)c(O)c1 .
Return: 0.394

====

Details: in n-butanol, 298.15 K
VALUE TYPE: solubility (mole fraction)
Lab note: record the figure alone, no unit after it.

Enquiry: Please report the recorded solubility (mole fraction) for CCCOC(=O)c1cc(O)c(O)c(O)c1 .
Return: 0.259

====

Settings: in ethanol, 308.15 K
VALUE TYPE: solubility (mole fraction)
Lab note: record the figure alone, no unit after it.

Enquiry: Please report the recorded solubility (mole fraction) for CCCOC(=O)c1cc(O)c(O)c(O)c1 .
Return: 0.244

====

Conditions: in n-propanol, 303.15 K
VALUE TYPE: solubility (mole fraction)
Lab note: record the figure alone, no unit after it.

Enquiry: Please report the recorded solubility (mole fraction) for CCCOC(=O)c1cc(O)c(O)c(O)c1 .
Return: 0.302

====

Settings: in acetone, 308.15 K
VALUE TYPE: solubility (mole fraction)
Lab note: record the figure alone, no unit after it.

Enquiry: Please report the recorded solubility (mole fraction) for CCCOC(=O)c1cc(O)c(O)c(O)c1 .
Return: 0.35

====

Settings: in n-butanol, 313.15 K
VALUE TYPE: solubility (mole fraction)
Lab note: record the figure alone, no unit after it.

Enquiry: Please report the recorded solubility (mole fraction) for CCCOC(=O)c1cc(O)c(O)c(O)c1 .
Return: 0.312

====

Conditions: in ethyl acetate, 323.15 K
VALUE TYPE: solubility (mole fraction)
Lab note: record the figure alone, no unit after it.

Enquiry: Please report the recorded solubility (mole fraction) for CCCOC(=O)c1cc(O)c(O)c(O)c1 .
Return: 0.333

====

Conditions: in isobutanol, 293.15 K
VALUE TYPE: solubility (mole fraction)
Lab note: record the figure alone, no unit after it.

Enquiry: Please report the recorded solubility (mole fraction) for CCCOC(=O)c1cc(O)c(O)c(O)c1 .
Return: 0.189
